src = paper PMC6589914

Below are Ki values recorded for bFUCA1 (Bos taurus, UniProt Q2KIM0).
// units = µM; emit number, no label

For orientation, consider the following solved cases.
Molecule	Ki / µM
CCCCCCCCCCc1ccc(NC(=O)ON=C2O[C@@H](C)[C@@H](O)[C@@H](O)[C@@H]2O)cc1	4.8
C[C@@H]1O/C(=N\OC(=O)Nc2ccccc2)[C@@H](O)[C@H](O)[C@@H]1O	11
C[C@@H]1OC(=NOC(=O)NC2CC2)[C@@H](O)[C@H](O)[C@@H]1O	184
C[C@@H]1OC(=NOC(=O)NC2CCCC2)[C@@H](O)[C@H](O)[C@@H]1O	325

Task: Look up Ki: CCCCCCNC(=O)ON=C1O[C@@H](C)[C@@H](O)[C@@H](O)[C@@H]1O
Output: 143

Task: Here is the next molecule: C[C@@H]1OC(=NO)[C@@H](O)[C@H](O)[C@@H]1O [compound 12, 1,5-hydroximolactone 12]
Output: 323
